Test: Aqueous solubility by suspension equilibration in water, concentration in filtrate by HPLC
Type: physicochemical
Conditions: thermodynamic from solid, at 25° C., calculated as free base, after 40 hours of suspension equilibration, HPLC
Experimental: The aqueous solubility was determined after 40 hours of suspension equilibration at 25° C. Thereafter, the suspension was filtered and the concentration in the liquid phase was determined by HPLC. […] The aqueous solubility of Asenapine salts is determined in water after 48 hours of suspension equilibration at 25° C. […] Thereafter, the suspension is filtered and the concentration in the liquid phase was determined by HPLC as described above. […]
Counter-ions that a name gives are not always drawn.
Measured Endpoint: solubility at 40 h (mg/mL)
Answers are plain numbers, in mg/mL.

Query: What measured solubility at 40 h goes with CN1C[C@H]2c3ccccc3Oc3ccc(Cl)cc3[C@@H]2C1 (relative stereo) [Asenapine HCl dihydrate] ?
Reply: 24.2

----------
test: Solubility of Asenapine maleate in saturated solution (Funke et al., literature); format: physicochemical; conditions: water (saturated solution), thermodynamic from solid, converted from the maleate salt value at 23° C., pH=4.4, read-out: free base solubility
Counter-ions that a name gives are not always drawn.
Measured Endpoint: solubility

Query: What measured solubility goes with CN1C[C@@H]2c3ccccc3Oc3ccc(Cl)cc3[C@H]2C1 (relative stereo) [maleate salt of Asenapine] ?
Reply: ~4100 µg/mL
